Test system: Rat primary microglia
Method Notes: Microglial IL-1β release (LPS priming, BzATP)
Format: cell-based
Reported Conditions: FIG. 2B legend, LPS 3EU/ml 24 hours, n=3, read-out: IC50, inhibition of IL-1β release from primary microglia (FIG. 2B legend)
Readout: pIC50
Scale explanation: pIC50 corresponds to minus log10 of a concentration expressed in moles per litre.

Give a short answer stating reported pIC50 for "NC(=O)C(c1ccccc1)(c1ccc(F)cc1)c1ccc(F)cc1" . 8.89

====

Target Or System: melatonin 1A receptors (Homo sapiens)
Construct: CEREP (contract screening)
Sequence (P48039 whole entry): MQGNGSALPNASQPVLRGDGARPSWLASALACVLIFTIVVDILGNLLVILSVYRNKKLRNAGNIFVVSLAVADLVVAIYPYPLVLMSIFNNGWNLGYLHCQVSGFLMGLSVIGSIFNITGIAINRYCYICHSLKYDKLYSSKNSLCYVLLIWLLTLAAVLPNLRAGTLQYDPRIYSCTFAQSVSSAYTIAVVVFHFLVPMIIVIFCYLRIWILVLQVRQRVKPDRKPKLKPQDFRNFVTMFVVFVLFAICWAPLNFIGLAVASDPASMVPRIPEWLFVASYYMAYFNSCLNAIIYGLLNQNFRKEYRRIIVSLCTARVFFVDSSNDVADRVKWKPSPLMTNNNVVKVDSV
Method Notes: Off target screen (CEREP panel) and dose response
Reported Conditions: full dose response curve; functional testing
Readout: pIC50
Scale explanation: pIC50 corresponds to minus log10 of a concentration expressed in moles per litre.

Give a short answer stating reported pIC50 for NC(=O)C(c1ccccc1)(c1ccc(F)cc1)c1ccc(F)cc1 [Senicapoc] . 5.77

====

Method Notes: Plasma, brain and spinal cord exposure in CCI rats
Type: in vivo, rat
Reported Conditions: male, Sprague-Dawley, rat, brain, po, 30 mg/kg, 30 mg/kg PO, mean ± SD, read-out: Brain
Readout: concentration at 4 h

Give a short answer stating reported concentration at 4 h for "NC(=O)C(c1ccccc1)(c1ccc(F)cc1)c1ccc(F)cc1" . 6.42 µM

====

Method Notes: Plasma, brain and spinal cord exposure in CCI rats
Type: in vivo, rat
Reported Conditions: male, Sprague-Dawley, rat, spinal cord, po, 30 mg/kg, 30 mg/kg PO, brain free fraction 0.008 used, read-out: Free Spinal Cord
Readout: concentration at 4 h (nM)
Please respond with the number in nM and leave the unit unwritten.

Give a short answer stating reported concentration at 4 h for "NC(=O)C(c1ccccc1)(c1ccc(F)cc1)c1ccc(F)cc1" . 38

====

Method Notes: Rat screening pharmacokinetics: plasma, brain, CSF exposure
Format: in vivo
Reported Conditions: male, Sprague-Dawley, rat, po, 10 mg/kg, Screening PK, 10 mg/kg PO, 1 h, mean ± SD; read-out: CSF
Readout: concentration at 1 h

Give a short answer stating reported concentration at 1 h for "NC(=O)C(c1ccccc1)(c1ccc(F)cc1)c1ccc(F)cc1" . 25 nM

====

Method Notes: Plasma, brain and spinal cord exposure in CCI rats
Type: in vivo, rat
Reported Conditions: male, Sprague-Dawley, rat, brain, po, 10 mg/kg, 10 mg/kg PO, mean ± SD, read-out: Brain
Readout: concentration at 4 h (nM)
Please respond with the number in nM and leave the unit unwritten.

Give a short answer stating reported concentration at 4 h for "NC(=O)C(c1ccccc1)(c1ccc(F)cc1)c1ccc(F)cc1" . 2770

====

Method Notes: Plasma, brain and spinal cord exposure in CCI rats
Format: in vivo, rat
Reported Conditions: male, Sprague-Dawley, rat, brain, 100 mg/kg PO, read-out: Free Brain/Free Plasma
Readout: Kp at 4 h
Form: value (number only, do not type unit).

Give a short answer stating reported Kp at 4 h for "NC(=O)C(c1ccccc1)(c1ccc(F)cc1)c1ccc(F)cc1" . 1

====

Method Notes: Rat screening pharmacokinetics: plasma, brain, CSF exposure
Assay type: in vivo
Reported Conditions: male, Sprague-Dawley, rat, po, 10 mg/kg, Screening PK, 10 mg/kg PO, 4 h, mean ± SD; read-out: CSF
Readout: concentration at 4 h (nM)
Please respond with the number in nM and leave the unit unwritten.

Give a short answer stating reported concentration at 4 h for NC(=O)C(c1ccccc1)(c1ccc(F)cc1)c1ccc(F)cc1 [Senicapoc] . 121
